IC50 for Matrilysin (Homo sapiens), merged from several publications.
I only need the number, in nM, no unit after it.

Fill in IC50 for `C[C@H](NS(=O)(=O)c1ccc2c(c1)Sc1ccccc1O2)C(=O)O` tested with Matrilysin (Homo sapiens).
19000

Fill in IC50 for `O=C(O)[C@H](CCc1ccccc1)NS(=O)(=O)c1ccc2c(c1)S(=O)(=O)c1ccccc1O2` tested with Matrilysin (Homo sapiens).
24000

Fill in IC50 for O=C(O)[C@@H]1[C@@H](Cn2nnc3ccccc3c2=O)CC[C@H]1C(=O)c1ccc(OCCC2CCOCC2)cc1 (single isomer, unassigned) tested with Matrilysin (Homo sapiens).
600

Fill in IC50 for O=C(O)[C@@H]1[C@@H](Cn2nnc3ccc(C(F)(F)F)cc3c2=O)CC[C@H]1C(=O)c1ccc(OCc2cccc(N3CCOC3=O)c2)cc1 (single isomer, unassigned) tested with Matrilysin (Homo sapiens).
31

Fill in IC50 for O=C(O)[C@H]1[C@H](Cn2nnc3ccc(C(F)(F)F)cc3c2=O)CC[C@@H]1C(=O)c1ccc(OCc2ccc(F)cc2)cc1 (racemic) tested with Matrilysin (Homo sapiens).
160

----------
IC50 for Matrilysin (Homo sapiens, UniProt P09237), merged from several publications.

Fill in IC50 for O=C(O)[C@H]1[C@H](Cn2nnc3ccc(C(F)(F)F)cc3c2=O)CC[C@@H]1C(=O)c1ccc(SCc2ccc(Cl)c(Cl)c2)cc1 (racemic) tested with Matrilysin (Homo sapiens, UniProt P09237).
1300 nM

Fill in IC50 for C[S+]([O-])CC[C@H](NS(=O)(=O)c1ccc2c(c1)Sc1ccccc1O2)C(=O)O (stereo partly drawn) tested with Matrilysin (Homo sapiens, UniProt P09237).
9150 nM

Fill in IC50 for Cc1ccc2nnn(C[C@@H]3CC[C@H](C(=O)c4ccc(OCc5ccccc5)cc4)[C@H]3C(=O)O)c(=O)c2c1 (racemic) tested with Matrilysin (Homo sapiens, UniProt P09237).
190 nM

Fill in IC50 for O=C(O)[C@H]1[C@H](Cn2nnc3ccccc3c2=O)CC[C@@H]1C(=O)c1ccc(OCC2CCOCC2)cc1 (stereo in doubt) tested with Matrilysin (Homo sapiens, UniProt P09237).
1200 nM

Fill in IC50 for Cc1ccc2nnn(C[C@H]3CC[C@@H](C(=O)c4ccc(OCC5CCCCC5)cc4)[C@@H]3C(=O)O)c(=O)c2c1 (single isomer, unassigned) tested with Matrilysin (Homo sapiens, UniProt P09237).
100 nM

Fill in IC50 for Cc1ccc2nnn(C[C@@H]3CC[C@H](C(=O)c4ccc(OCc5cccc(Cl)c5)cc4)[C@H]3C(=O)O)c(=O)c2c1 (racemic) tested with Matrilysin (Homo sapiens, UniProt P09237).
330 nM

----------
IC50 for Matrilysin (Homo sapiens, UniProt P09237), merged from several publications.
I only need the number, in µM, no unit after it.

compound="Cc1ccc2nnn(C[C@H]3CC[C@@H](C(=O)c4ccc(OCc5ccccc5)cc4)[C@@H]3C(=O)O)c(=O)c2c1 (single isomer, unassigned)" display_unit=µM endpoint_value=0.11
compound="O=C(O)[C@@H]1[C@@H](Cn2nnc3ccc(C(F)(F)F)cc3c2=O)CC[C@H]1C(=O)c1ccc(OCc2ccc(F)cc2)cc1 (single isomer, unassigned)" display_unit=µM endpoint_value=0.12
compound="O=C(O)[C@@H]1[C@@H](Cn2nnc3ccc(C(F)(F)F)cc3c2=O)CC[C@H]1C(=O)c1ccc(OCC2CCCCC2)cc1 (single isomer, unassigned)" display_unit=µM endpoint_value=0.068
compound=O=C(O)[C@H](CSC(c1ccccc1)(c1ccccc1)c1ccccc1)NS(=O)(=O)c1ccc2c(c1)Sc1ccccc1O2 display_unit=µM endpoint_value=66
compound="O=C(O)[C@@H]1[C@@H](Cn2nnc3ccc(C(F)(F)F)cc3c2=O)CC[C@H]1C(=O)c1cc2cc(OCCc3ccccc3)ccc2o1 (single isomer, unassigned; enantiomer 2)" display_unit=µM endpoint_value=0.3
compound="O=C(CC(CCn1nnc2ccccc2c1=O)C(=O)O)c1noc2cc(OCC3CC3)ccc12 (racemic)" display_unit=µM endpoint_value=29
compound="CCCCCOc1ccc2cc(C(=O)CC(CCn3nnc4ccccc4c3=O)C(=O)O)sc2c1 (racemic)" display_unit=µM endpoint_value=30
compound="Cc1ccc2nnn(C[C@H]3CC[C@@H](C(=O)c4ccc(OCc5cccc(C(F)(F)F)c5)cc4)[C@@H]3C(=O)O)c(=O)c2c1 (single isomer, unassigned)" display_unit=µM endpoint_value=0.72
compound="O=C(O)[C@H]1[C@H](Cn2nnc3ccccc3c2=O)CC[C@@H]1C(=O)c1ccc(OCC2CCCC2)cc1 (racemic)" display_unit=µM endpoint_value=2.2
compound="CCCCOc1ccc(C(=O)[C@@H]2CC[C@H](Cn3nnc4ccc(C(F)(F)F)cc4c3=O)[C@H]2C(=O)O)cc1 (single isomer, unassigned)" display_unit=µM endpoint_value=0.12

Now consider the entry below.
Tell me measured IC50 for CCCCCCOc1ccc(C(=O)[C@@H]2CC[C@H](Cn3nnc4ccc(C(F)(F)F)cc4c3=O)[C@H]2C(=O)O)cc1 (single isomer, unassigned) please.
0.18
